Values from patent US9145392B2

- tested_system: His-AKT (Full Length) (Homo sapiens (Human), UniProt P31749)
- Sequence (P31749 whole entry): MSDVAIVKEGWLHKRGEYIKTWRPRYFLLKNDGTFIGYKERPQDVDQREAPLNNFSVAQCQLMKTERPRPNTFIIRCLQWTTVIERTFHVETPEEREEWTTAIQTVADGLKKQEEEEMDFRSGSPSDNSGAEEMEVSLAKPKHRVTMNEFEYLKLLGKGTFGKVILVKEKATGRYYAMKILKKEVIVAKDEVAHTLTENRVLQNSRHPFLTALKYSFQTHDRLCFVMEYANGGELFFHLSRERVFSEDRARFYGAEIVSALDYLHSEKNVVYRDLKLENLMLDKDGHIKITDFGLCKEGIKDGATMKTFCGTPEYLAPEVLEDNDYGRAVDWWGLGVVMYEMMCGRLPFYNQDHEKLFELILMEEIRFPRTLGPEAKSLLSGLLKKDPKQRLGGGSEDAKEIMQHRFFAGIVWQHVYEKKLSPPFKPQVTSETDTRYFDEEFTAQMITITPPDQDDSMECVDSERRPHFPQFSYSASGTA
- assay_name: AKT enzyme assay
- Format: biochemical
- experimental_parameters: read-out: IC50 AKT
Mark MET for IC50 under 0.08 µM, NOT MET if at or over.

Before answering, review these 3 worked examples.
CCN(CCn1cc(-c2ccc(F)c(C)c2)nc1C1CCN(c2ncnc(N)c2OC(C)C)CC1)C(C)C [Compound 302] : MET
CCc1c(N)ncnc1N1CCC(c2nc(-c3ccc(F)c(C(F)(F)F)c3)cn2CCN2CCCC2)CC1 [Compound 208] : MET
CNCCn1cc(-c2ccnc(C(F)(F)F)c2)nc1C1CCN(c2ncnc(N)c2Cl)CC1 [Compound 172] : MET

Ask | Identify whether the compound Nc1ncnc(N2CCC(c3nc(-c4ccc(F)cc4)cn3CCN3CCCC3)CC2)c1C1CCC1 [Compound 256] records IC50 below 0.08 µM.
Reply | MET

Ask | Below 0.08 µM on IC50? Entry Cc1cc(-c2cn(CCNC3CCCC3)c(C3CCN(c4ncnc(N)c4C#N)CC3)n2)ccc1F [Compound 389]
Reply | MET

Ask | IC50 under 0.08 µM? Item: CCc1c(N)ncnc1N1CCC(c2nc(-c3ccc(C(F)(F)F)c(F)c3)cn2CCN2CCCC(F)C2)CC1 (stereo not shown) [Compound 250]
Reply | NOT MET

Ask | Please check: IC50 for Cc1cc(-c2cn(CCO)c(C3CCN(c4ncnc(N)c4C#N)CC3)n2)ccc1F [Compound 384] , strictly under 0.08 µM or not?
Reply | NOT MET

Ask | Dear reviewer, please state whether CCc1c(N)ncnc1N1CCC(c2nc(-c3ccc(C(F)(F)F)cc3)cn2CCN2CCCC2)CC1 [Compound 271] has IC50 strictly beneath 0.08 µM.
Reply | NOT MET

Ask | Determine whether this compound shows IC50 lower than 0.08 µM (ties excluded): COc1c(N)ncnc1N1CCC(c2nc(-c3ccc(F)c(C)c3)cn2CC2CNC2)CC1 [Compound 184]
Reply | MET

Ask | Problem: For the compound Cc1cc(-c2cn(CCN(C)C)c(C3CCN(c4ncnc(N)c4C#N)CC3)n2)ccc1F [Compound 325] , is IC50 under 0.08 µM?
Reply | MET

Ask | Please check: IC50 for Cc1cc(-c2cn(CC3CN(CO)C3)c(C3CCN(c4ncnc(N)c4C(C)C)CC3)n2)ccc1F [Compound 399] , strictly under 0.08 µM or not?
Reply | MET

Ask | Hi there! Is IC50 for Nc1ncnc(N2CCC(c3nc(-c4ccc(F)cc4)cn3CCN3CCCC3)CC2)c1Br [Compound 227] below 0.08 µM, do you know?
Reply | MET

Ask | Please determine if C=Cc1c(N)ncnc1N1CCC(c2nc(-c3ccc(F)c(C(F)(F)F)c3)cn2CC2CNC2)CC1 [Compound 183] is below 0.08 µM in terms of IC50.
Reply | MET
